Value source: patent US9695155B2

Tested on: Italian ryegrass
Assay: Test E preemergence
Assay type: in vivo, Lolium multiflorum
Settings: 62 g ai/ha, scale 0 to 100 (0 no effect, 100 complete control)
Measurement label: Ryegrass, Italian plant response rating
Keep it simple and answer with nothing but the number.

Would you please look over these solved cases?
Smiles data	Target or test system	Ryegrass, Italian plant response rating
FC(F)c1cccc(Oc2ncc(Cl)cn2)c1-n1cc(Br)cn1	Italian ryegrass	0
N#Cc1cnn(-c2c(CF)cccc2Oc2ncc(F)cn2)c1	Italian ryegrass	10

Please give the measured Ryegrass, Italian plant response rating for this compound: FCc1cccc(Oc2ncc(Cl)cn2)c1-n1cc(Cl)cn1 0

Now the same for FC(F)(F)c1cnn(-c2c(Cl)cccc2Oc2ncc(Cl)cn2)c1 10

Now the same for N#Cc1cccc(Oc2ncc(F)cn2)c1-n1cc(I)cn1 0

Now the same for FC(F)(F)c1cnn(-c2ccccc2Oc2ncc(Br)cn2)c1 0
